# Tested on: RARa:RXR (NR concentration 270 nM, RXRa partner concentration 90 nM)
# run_description: PBM binding z-score (relative to random genomic background probes); higher = stronger binding; sequences stand for … in GC…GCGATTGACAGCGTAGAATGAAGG
attribute_measured: PBM binding z-score
Format: numeric value only, no unit, no commentary.

Problem: Entry `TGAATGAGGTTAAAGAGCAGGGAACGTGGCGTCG` : reported PBM binding z-score = ?
Solution: 2.52

Problem: Also, `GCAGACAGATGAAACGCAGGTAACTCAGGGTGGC` please.
Solution: -0.161

Problem: Also, `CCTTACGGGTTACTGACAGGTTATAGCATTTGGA` please.
Solution: 1.51

Problem: Also, `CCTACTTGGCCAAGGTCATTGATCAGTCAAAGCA` please.
Solution: 3.57

Problem: Also, `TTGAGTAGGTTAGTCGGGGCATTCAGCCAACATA` please.
Solution: 0.545

Problem: Also, `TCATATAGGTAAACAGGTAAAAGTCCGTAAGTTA` please.
Solution: 1.14

Problem: Also, `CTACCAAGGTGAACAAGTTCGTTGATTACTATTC` please.
Solution: 0.986

Problem: Also, `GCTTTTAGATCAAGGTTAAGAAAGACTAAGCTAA` please.
Solution: 1.07

Problem: Also, `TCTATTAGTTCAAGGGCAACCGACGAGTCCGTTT` please.
Solution: 1.55

Problem: Also, `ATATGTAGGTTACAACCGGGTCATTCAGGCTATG` please.
Solution: 3.96

Problem: Also, `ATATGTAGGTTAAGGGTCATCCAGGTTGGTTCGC` please.
Solution: 6.77

Problem: Also, `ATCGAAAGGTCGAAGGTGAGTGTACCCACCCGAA` please.
Solution: 4.01

Problem: Also, `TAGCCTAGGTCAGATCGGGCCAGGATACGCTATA` please.
Solution: 0.816

Problem: Also, `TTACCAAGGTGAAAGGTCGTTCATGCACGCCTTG` please.
Solution: 5.63

Problem: Also, `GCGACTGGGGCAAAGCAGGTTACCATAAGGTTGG` please.
Solution: 0.0364

Problem: Also, `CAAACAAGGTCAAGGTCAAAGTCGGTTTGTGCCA` please.
Solution: 6.86

Problem: Also, `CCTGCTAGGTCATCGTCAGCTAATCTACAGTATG` please.
Solution: 2.39

Problem: Also, `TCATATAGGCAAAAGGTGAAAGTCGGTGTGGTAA` please.
Solution: 1.81

Problem: Also, `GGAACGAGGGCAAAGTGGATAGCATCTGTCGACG` please.
Solution: 0.674

Problem: Also, `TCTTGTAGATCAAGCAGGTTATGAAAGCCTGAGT` please.
Solution: 0.334
